# Test system: human SMAD7 mRNA
# ASSAY PROCEDURE: Antisense inhibition of human SMAD7 mRNA expression in Hep3B cells by 3-10-3 cEt gapmers, 10,000 nM, electroporation (Example 2)
# Type: cell-based
# MEASUREMENT SETUP: SMAD7 mRNA, Hep3B cells, 10,000 nM antisense oligonucleotide, electroporation, approximately 24 hours, primer probe set RTS5062, relative to untreated control cells
# Method: Antisense oligonucleotides were designed to target human SMAD7 mRNA and were tested for their effects on SMAD7 mRNA expression in vitro. […] After a treatment period of approximately 24 hours, RNA was isolated from the cells and SMAD7 mRNA levels were measured by quantitative real-time PCR. […] SMAD7 mRNA levels were adjusted according to total RNA content, as measured by RIBOGREEN®. […]
Strand notation (5' to 3'): a small letter for the sugar, then the base; units joined by * are phosphorothioate-linked, units joined directly phosphodiester-linked; [ ] holds rarer units or linkages, { } end groups; capitals alone tell only the bases. k = constrained ethyl (cEt); [5mC] = 5-methylcytosine; d = 2'-deoxy (DNA)
Recorded % Inhibition for the following substances
Give your result in % as a bare value.

As a guide, the following entries are already answered.
>  <SUBSTANCE>
829794 (kG*kA*kT*d[5mC]*dT*dT*d[5mC]*d[5mC]*d[5mC]*dG*dT*dA*dA*kG*kA*kT; antisense) [compound 829794]

>  <VALUE REPORTED>
24

$$$$
>  <SUBSTANCE>
800837 (antisense kA*kA*kA*d[5mC]*d[5mC]*dT*dT*dT*dG*dT*dA*dG*dT*kT*kA*kG) [compound 800837]

>  <VALUE REPORTED>
41

$$$$
>  <SUBSTANCE>
772595 (kA*k[5mC]*k[5mC]*dA*d[5mC]*dG*d[5mC]*dA*d[5mC]*d[5mC]*dA*dG*dT*kG*kT*kG; antisense) [compound 772595]

>  <VALUE REPORTED>
2

$$$$
>  <SUBSTANCE>
829742 (antisense k[5mC]*kG*k[5mC]*d[5mC]*dG*dG*dA*d[5mC]*dG*dA*dG*d[5mC]*dG*k[5mC]*kA*kG) [compound 829742]

>  <VALUE REPORTED>
43

$$$$
>  <SUBSTANCE>
790674 (kT*kG*k[5mC]*dT*dA*d[5mC]*d[5mC]*dT*dA*dA*dT*dG*dT*k[5mC]*kA*kA; antisense) [compound 790674]

>  <VALUE REPORTED>
40

$$$$

Now let's try a different one.
// 790736 (kT*k[5mC]*kA*dA*dA*d[5mC]*dT*dT*dT*dG*dA*dA*dG*k[5mC]*k[5mC]*kT; antisense) [compound 790736] : % Inhibition value = 60

* * *

Recorded % inhibition of SMAD7 mRNA expression for the following substances
# System: human SMAD7 mRNA
# ASSAY PROCEDURE: Dose-dependent inhibition of human SMAD7 mRNA expression in Hep3B cells (Example 3, Study 1 and 2)
# Assay type: cell-based
# MEASUREMENT SETUP: 740 nM, electroporation, approximately 16 hours, Study 2, relative to untreated control cells
Strand notation (5' to 3'): a small letter for the sugar, then the base; units joined by * are phosphorothioate-linked, units joined directly phosphodiester-linked; [ ] holds rarer units or linkages, { } end groups; capitals alone tell only the bases. k = constrained ethyl (cEt); [5mC] = 5-methylcytosine; d = 2'-deoxy (DNA)
Give your result in % as a bare value.

// 799318 (antisense kG*kT*kG*dG*dA*dT*dT*dT*dG*dA*dA*dA*dA*kG*kG*kG) [compound 799318] : % inhibition of SMAD7 mRNA expression value = 12

// 829994 (GGAGGCAGGGCCGCGA; 3-10-3 cEt gapmer, further chemistry not given here) [compound 829994] : % inhibition of SMAD7 mRNA expression value = 25

// 790614 (kG*kA*kG*dA*dA*dT*dG*d[5mC]*dT*dT*d[5mC]*dT*d[5mC]*kT*kT*kG; antisense) [compound 790614] : % inhibition of SMAD7 mRNA expression value = 0

* * *

# Test system: human SMAD7 mRNA
# ASSAY PROCEDURE: Antisense inhibition of human SMAD7 mRNA expression in Hep3B cells by 3-10-3 cEt gapmers, 10,000 nM, electroporation (Example 2)
# Assay type: cell-based
# MEASUREMENT SETUP: SMAD7 mRNA, Hep3B cells, 10,000 nM antisense oligonucleotide, electroporation, approximately 24 hours, primer probe set RTS5062, relative to untreated control cells
Strand notation (5' to 3'): a small letter for the sugar, then the base; units joined by * are phosphorothioate-linked, units joined directly phosphodiester-linked; [ ] holds rarer units or linkages, { } end groups; capitals alone tell only the bases. k = constrained ethyl (cEt); [5mC] = 5-methylcytosine; d = 2'-deoxy (DNA)
ASSAY ENDPOINT: % Inhibition (%)
Give your result in % as a bare value.

>  <SUBSTANCE>
829722 (antisense kA*kT*kG*d[5mC]*dG*d[5mC]*d[5mC]*dA*dG*dT*d[5mC]*dT*d[5mC]*k[5mC]*k[5mC]*kG) [compound 829722]

>  <STUDY SYSTEM>
human SMAD7 mRNA

>  <VALUE REPORTED>
38

$$$$
>  <SUBSTANCE>
800999 (antisense k[5mC]*kA*kT*dT*d[5mC]*dA*dT*dT*dA*dA*dG*d[5mC]*d[5mC]*k[5mC]*kG*k[5mC]) [compound 800999]

>  <STUDY SYSTEM>
human SMAD7 mRNA

>  <VALUE REPORTED>
54

$$$$
>  <SUBSTANCE>
800821 (antisense kG*k[5mC]*kT*dA*dA*dA*dT*dT*dT*d[5mC]*d[5mC]*dA*dA*kT*kG*kA) [compound 800821]

>  <STUDY SYSTEM>
human SMAD7 mRNA

>  <VALUE REPORTED>
56

$$$$

// 772635 (kA*kA*kG*d[5mC]*dT*dG*dA*dT*d[5mC]*dT*dG*d[5mC]*dA*k[5mC]*kG*kG; antisense) [compound 772635] : % Inhibition value = 43

* * *

# Test system: human SMAD7 mRNA
# ASSAY PROCEDURE: Dose-dependent inhibition of human SMAD7 mRNA expression in Hep3B cells (Example 3, Study 1 and 2)
# Assay type: cell-based
# MEASUREMENT SETUP: 20000.0 nM, electroporation, approximately 16 hours, Study 2
Strand notation (5' to 3'): a small letter for the sugar, then the base; units joined by * are phosphorothioate-linked, units joined directly phosphodiester-linked; [ ] holds rarer units or linkages, { } end groups; capitals alone tell only the bases. k = constrained ethyl (cEt); [5mC] = 5-methylcytosine; d = 2'-deoxy (DNA)
Output Y for % inhibition of SMAD7 mRNA expression not less than 80%; output N otherwise.

These solved cases illustrate the format of a correct answer.
>  <SUBSTANCE>
799787 (k[5mC]*k[5mC]*kA*dA*dA*dG*d[5mC]*dA*dG*dA*dA*dG*dT*kA*kG*kA; antisense) [compound 799787]

>  <STUDY SYSTEM>
human SMAD7 mRNA

>  <LABEL>
N

$$$$
>  <SUBSTANCE>
798931 (antisense kG*kA*kG*dG*dA*dA*dA*dA*dT*dA*dT*dT*dA*kG*k[5mC]*kA) [compound 798931]

>  <STUDY SYSTEM>
human SMAD7 mRNA

>  <LABEL>
Y

$$$$
>  <SUBSTANCE>
790736 (kT*k[5mC]*kA*dA*dA*d[5mC]*dT*dT*dT*dG*dA*dA*dG*k[5mC]*k[5mC]*kT; antisense) [compound 790736]

>  <STUDY SYSTEM>
human SMAD7 mRNA

>  <LABEL>
N

$$$$

Exercise: hey, is % inhibition of SMAD7 mRNA expression for this one >= 80%? 799511 (antisense kT*kA*kA*dT*dG*dA*d[5mC]*dA*dA*dT*dT*d[5mC]*d[5mC]*kA*kG*k[5mC]) [compound 799511]
Key: N

Exercise: hey, is % inhibition of SMAD7 mRNA expression for this one >= 80%? 799851 (kA*kA*kG*dT*dG*dT*d[5mC]*d[5mC]*dA*dT*d[5mC]*dA*dA*kG*k[5mC]*kA; antisense) [compound 799851]
Key: N

Exercise: hey, is % inhibition of SMAD7 mRNA expression for this one >= 80%? 830138 (antisense kG*kG*kA*dG*dT*dT*dG*d[5mC]*dA*dT*dG*d[5mC]*d[5mC]*kT*kT*kT) [compound 830138]
Key: Y

Exercise: hey, is % inhibition of SMAD7 mRNA expression for this one >= 80%? 799808 (antisense kG*k[5mC]*kT*dG*dA*dA*dA*dG*dA*dA*dA*dG*dT*k[5mC]*k[5mC]*k[5mC]) [compound 799808]
Key: N

Exercise: hey, is % inhibition of SMAD7 mRNA expression for this one >= 80%? 799412 (antisense kT*kT*k[5mC]*dT*dT*dA*d[5mC]*dA*d[5mC]*dA*dG*d[5mC]*dA*kG*k[5mC]*kG) [compound 799412]
Key: N

Exercise: hey, is % inhibition of SMAD7 mRNA expression for this one >= 80%? 801051 (antisense kG*kT*kG*dT*dT*d[5mC]*dA*dA*d[5mC]*dA*dA*dT*dG*k[5mC]*kT*kT) [compound 801051]
Key: Y

Exercise: hey, is % inhibition of SMAD7 mRNA expression for this one >= 80%? 830010 (antisense kG*kT*k[5mC]*dT*d[5mC]*dA*dA*dA*dT*dG*dG*dG*d[5mC]*kT*kT*k[5mC]) [compound 830010]
Key: N

Exercise: hey, is % inhibition of SMAD7 mRNA expression for this one >= 80%? 799718 (antisense k[5mC]*kT*kG*d[5mC]*dT*dA*dG*dG*dG*dA*dT*dA*d[5mC]*kT*kG*kA) [compound 799718]
Key: N

Exercise: hey, is % inhibition of SMAD7 mRNA expression for this one >= 80%? 830170 (antisense kG*k[5mC]*kT*d[5mC]*dT*dG*dT*dT*dT*dG*dG*dA*d[5mC]*kA*kA*kG) [compound 830170]
Key: N
